Each record here notes measured Δ dp/dt.
Tested on: male Wistar rats
Conditions: 400 μg/kg i.v.

NCCCCN=C(N)N [agmatine, 4-(aminobutyl)guanidine, reference compound]
+334 ± 54 mmHg/sec
CC(C)=CCN=C(N)N [galegine, prenylguanidine, reference compound]
+2568 ± 314 mmHg/sec

Task: In one line, give reported Δ dp/dt of the entry COc1ccc([C@@H]2[C@@H](C(=O)NCCCCNC(=N)NCC=C(C)C)[C@@H](C(=O)NCCCCNC(=N)NCC=C(C)C)[C@@H]2c2ccc(OC)c(OC)c2)cc1OC [diguanido-II] .
Output: +2615 ± 181 mmHg/sec

Task: Given the compound COc1ccc(C=CC(=O)NCCCCNC(=N)N)cc1OC [guanido-V] , write its reported Δ dp/dt.
Output: -384 ± 39 mmHg/sec

Task: Name the recorded Δ dp/dt of the item COc1ccc(C=CC(=O)NCCCCNC(=N)NCC=C(C)C)cc1OC [guanido-I] in your answer.
Output: +1712 ± 107 mmHg/sec

Task: Return the recorded Δ dp/dt value; entry: CC(C)=CCNC(=N)NCCCCN [guanido-III, prenylagmatine]
Output: +321 ± 17 mmHg/sec

----------
System: male Wistar rats
Conditions: 6400 μg/kg i.v.
# reported Δ RF; entries follow

Take a look at these entries with their results.
CC(C)=CCNC(=N)NCCCCN
-100%
NCCCCN=C(N)N [agmatine, 4-(aminobutyl)guanidine, reference compound]
+13 ± 5%
COc1ccc(C=CC(=O)NCCCCNC(=N)N)cc1OC
+10 ± 4%
COc1ccc(C=CC(=O)NCCCCNC(=N)NCC=C(C)C)cc1OC
+29 ± 5 acts/min

Task: Determine from records and report Δ RF for CC(C)=CCN=C(N)N [galegine, prenylguanidine, reference compound]
Output: +37 ± 11%

----------
System: male Wistar rats
Conditions: 200 μg/kg i.v.
quantity measured: Δ dp/dt

Examples from the recorded data:
CC(C)=CCNC(=N)NCCCCN
+214 ± 20 mmHg/sec
COc1ccc([C@@H]2[C@@H](C(=O)NCCCCNC(=N)NCC=C(C)C)[C@@H](C(=O)NCCCCNC(=N)NCC=C(C)C)[C@@H]2c2ccc(OC)c(OC)c2)cc1OC
+1369 ± 170 mmHg/sec
NCCCCN=C(N)N [agmatine, 4-(aminobutyl)guanidine, reference compound]
+300 ± 89 mmHg/sec
CC(C)=CCN=C(N)N [galegine, prenylguanidine, reference compound]
+1797 ± 178 mmHg/sec
COc1ccc(C=CC(=O)NCCCCNC(=N)N)cc1OC
-392 ± 21 mmHg/sec

Task: Consider the compound `COc1ccc(C=CC(=O)NCCCCNC(=N)NCC=C(C)C)cc1OC` and give its recorded Δ dp/dt.
Output: +1284 ± 78 mmHg/sec

----------
Tested on: male Wistar rats
Conditions: 400 μg/kg i.v.
Recorded Δ TV for the following compounds
Record the value in %, omitting the unit from your answer.

COc1ccc([C@@H]2[C@@H](C(=O)NCCCCNC(=N)NCC=C(C)C)[C@@H](C(=O)NCCCCNC(=N)NCC=C(C)C)[C@@H]2c2ccc(OC)c(OC)c2)cc1OC [diguanido-II]
-51

Task: Given the compound COc1ccc(C=CC(=O)NCCCCNC(=N)N)cc1OC [guanido-V] , write its reported Δ TV.
Output: -13

----------
Tested on: male Wistar rats
Conditions: 400 μg/kg i.v.
quantity measured: Δ RF

CC(C)=CCN=C(N)N [galegine, prenylguanidine, reference compound]
+76 ± 9%

Task: Enter Δ RF (test system male Wistar rats) for COc1ccc(C=CC(=O)NCCCCNC(=N)NCC=C(C)C)cc1OC [guanido-I]
Output: +16 ± 3 acts/min

Task: State Δ RF (male Wistar rats) of NCCCCN=C(N)N [agmatine, 4-(aminobutyl)guanidine, reference compound] .
Output: +11 ± 4%

Task: Provide male Wistar rats Δ RF reading for COc1ccc(C=CC(=O)NCCCCNC(=N)N)cc1OC [guanido-V] .
Output: -3%

Task: GET Δ RF | system: male Wistar rats | item: CC(C)=CCNC(=N)NCCCCN [guanido-III, prenylagmatine]
Output: +7 ± 3%
